Origin of measurements: patent US9422238B2

ASSAY_NAME: Pharmacokinetic study, IP
Format: in vivo, mice
MEASUREMENT_SETUP: female, Balb/c, mouse, plasma, ip, 10 mg/kg, Balb/c mice, 10 mg/kg IP; read-out: T1/2 (converted)
PROPERTY_LABEL: half-life

- COMPOUND: "CCCCCCCCn1cc(CN(CC)CC)c2cc(-c3cnc(N)nc3)ccc21 [Compound 8-12]"
  PROPERTY_LABEL: "half-life"
  RESULT: "1.25 h"

###

TGT: Isoprenylcysteine carboxyl methyltransferase (Icmt) (Homo sapiens)
Construct: made in house; host or cells: Sf9 (Spodoptera frugiperda) insect cells; membrane preparation provided by Prof PJ Casey (Duke University / Duke-NUS)
Sequence (O60725 whole entry, species assumed): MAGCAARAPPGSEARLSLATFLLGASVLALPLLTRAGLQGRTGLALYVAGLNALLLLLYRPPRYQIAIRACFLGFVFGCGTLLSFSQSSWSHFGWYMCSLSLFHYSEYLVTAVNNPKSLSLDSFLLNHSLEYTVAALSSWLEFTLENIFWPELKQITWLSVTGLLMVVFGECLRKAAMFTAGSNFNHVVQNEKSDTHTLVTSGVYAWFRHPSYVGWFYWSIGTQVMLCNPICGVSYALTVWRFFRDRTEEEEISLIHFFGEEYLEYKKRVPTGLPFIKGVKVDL
ASSAY_NAME: Icmt inhibition, scintillation proximity assay with BFC and [3H]SAM
Type: biochemical
MEASUREMENT_SETUP: Table 3; mean of two or more determinations (SD); listed as 8.1; read-out: IC50 Icmt

- TEST_SMILES: "CCCCCCCCn1cc(CN(CC)CC)c2cc(-c3cccc(C)c3)ccc21"
  IC50 / nM: 2180

###

ASSAY_NAME: Pharmacokinetic study, IP
Format: in vivo, mice
MEASUREMENT_SETUP: female, mouse, plasma; Balb/c mice, 20 mg/kg IP
PROPERTY_LABEL: AUC (µg·h/mL)

- COMPOUND: "CCCCCCCCn1cc(CC(N)=O)c2cc(-c3cccc(C)c3)ccc21 [Cysmethynil, reference compound]"
  NUMERIC_VALUE: 843

###

ASSAY_NAME: Pharmacokinetic study, IP
Type: in vivo, mice
MEASUREMENT_SETUP: female, Balb/c, mouse, plasma, intraperitoneal, summary, treated mice; read-out: half life
PROPERTY_LABEL: half-life

- TEST_SMILES: "CCCCCCCCn1cc(CN(CC)CC)c2cc(-c3cnc(N)nc3)ccc21"
  PROPERTY_LABEL: "half-life"
  RESULT: "< 60 min"

###

ASSAY_NAME: Pharmacokinetic study, IP
Type: in vivo, mice
MEASUREMENT_SETUP: female, mouse; Balb/c mice, 20 mg/kg IP, plasma
PROPERTY_LABEL: Cmax

- MOLECULE: "CCCCCCCCn1cc(CC(N)=O)c2cc(-c3cccc(C)c3)ccc21 [Cysmethynil, reference compound]"
  RESULT: "210 µg/mL"

###

ASSAY_NAME: Pharmacokinetic study, IP
Format: in vivo, mice
MEASUREMENT_SETUP: female, mouse; Balb/c mice, 25 mg/kg IP, plasma

- TEST_SMILES: "CCCCCCCCn1cc(CN(CC)CC)c2cc(-c3cnc(N)nc3)ccc21"
  Cmax, ng/mL: 17400

###

ASSAY_NAME: physchem
MEASUREMENT_SETUP: 25 °C, pH 7.4, aqueous buffer, kinetic from dmso stock
Known solubility at 24 h of a selection of compounds

- COMPOUND: "CCCCCCCCn1cc(CC(N)=O)c2cc(-c3cccc(C)c3)ccc21 [Cysmethynil, reference compound]"
  BOUND_TYPE: "<"
  solubility at 24 h / µM: 1
- COMPOUND: "CCCCCCCCn1c2c(c3cc(-c4cnc(N)nc4)ccc31)CN(C)CC2 [Compound 305]"
  BOUND_TYPE: "="
  solubility at 24 h / µM: 40.6
- COMPOUND: "CCCCCCCCn1cc(CN(CC)CC)c2cc(-c3cnc(N(C)C)nc3)ccc21"
  BOUND_TYPE: "="
  solubility at 24 h / µM: 24.9
- COMPOUND: "CCCCCCCCn1cc(CN(CC)CC)c2cc(-c3cccc(C)c3)ccc21 [Compound 8-1]"
  BOUND_TYPE: "<"
  solubility at 24 h / µM: 1
- COMPOUND: "CCCCCCCCn1cc(CN(CC)CC)c2cc(-c3cncnc3)ccc21 [Compound 8-15]"
  BOUND_TYPE: "="
  solubility at 24 h / µM: 272

###

ASSAY_NAME: Aggregation tendency by dynamic light scattering (DLS)
Format: physicochemical
MEASUREMENT_SETUP: 10 μM, 1% DMSO, potassium phosphate buffer 5 mM pH 7.4
Experimental: Stock solutions (10 mM) of test compounds prepared in DMSO, diluted to 1 mM with DMSO and then serially diluted with potassium phosphate buffer (5 mM, pH 7.4, prefiltered before use) to give final concentrations of 1 μM and 10 μM. Final concentration of DMSO was 1% v/v. Measurements were carried out on the Malvern Instrument Zetasizer Nano ZS system equipped with a 4 mW He—Ne laser at 633 nm and detector angle of 90°. […] The vehicle (phosphate buffer, 1% DMSO) gave a reading of 14.9±0.4.

- MOLECULE: "CCCCCCCCn1cc(CC(N)=O)c2cc(-c3cccc(C)c3)ccc21 [Cysmethynil, reference compound]"
  DLS count rate (kcps): "164.0 kcps"
- MOLECULE: "CCCCCCCCn1cc(CN(CC)CC)c2cc(-c3cncnc3)ccc21"
  DLS count rate (kcps): "28.9 kcps"
- MOLECULE: "CCCCCCCCn1cc(CN(CC)CC)c2cc(-c3cnc(N)nc3)ccc21"
  DLS count rate (kcps): "53.3 kcps"
- MOLECULE: "CCCCCCCCn1cc(CN(CC)CC)c2cc(-c3cccnc3)ccc21"
  DLS count rate (kcps): "16.5 kcps"
- MOLECULE: "CCCCCCCCn1c2c(c3cc(-c4cnc(N)nc4)ccc31)CN(C)CC2"
  DLS count rate (kcps): "29.0 kcps"

###

ASSAY_NAME: Parallel Artificial Membrane Permeability Assay (PAMPA)
MEASUREMENT_SETUP: PAMPA, pH 7.4
Known Papp at 16 h of a selection of compounds

- TEST_SMILES: "CCCCCCCCn1c2c(c3cc(-c4cnc(N)nc4)ccc31)CN(C)CC2"
  Papp at 16 h / ×10⁻⁶ cm/s: 19.7
- TEST_SMILES: "CCCCCCCCn1cc(CN(CC)CC)c2cc(-c3cnc(N)nc3)ccc21"
  Papp at 16 h / ×10⁻⁶ cm/s: 14.2

###

ASSAY_NAME: physchem
MEASUREMENT_SETUP: pH 7.4, aqueous buffer, kinetic from dmso stock
Known solubility at 3 h of a selection of molecules

- MOLECULE: "CCCCCCCCn1cc(CN(CC)CC)c2cc(-c3cncnc3)ccc21 [Compound 8-15]"
  DISPLAY_UNIT: "µM"
  solubility at 3 h: 266
- MOLECULE: "CCCCCCCCn1cc(CN(CC)CC)c2cc(-c3cccnc3)ccc21 [Compound 8-7]"
  DISPLAY_UNIT: "µM"
  solubility at 3 h: 250
- MOLECULE: "CCCCCCCCn1cc(CN(CC)CC)c2cc(-c3cnc(N(C)C)nc3)ccc21"
  DISPLAY_UNIT: "µM"
  solubility at 3 h: 25.3

###

Test system: MDA-MB-231 human breast cells
ASSAY_NAME: Antiproliferative activity / cell viability (MTS, 72 h)
MEASUREMENT_SETUP: Homo sapiens, MDA-MB-231, read-out: IC50 (μM) MDA MB 231
Known IC50 of a selection of molecules

- MOLECULE: "CCCCCCCCn1cc(CN(CC)CC)c2cc(-c3cnc(N)nc3)ccc21 [Compound 8-12]"
  IC50 (µM): 2.63
- MOLECULE: "CCCCCCCCn1cc(CN(CC)CC)c2cc(-c3cccc(C)c3)ccc21 [Compound 8-1]"
  IC50 (µM): 7.9
- MOLECULE: "CCCCCCCCn1cc(CN(CC)CC)c2cc(-c3ccc(S(=O)(=O)NC)cc3)ccc21 [Compound 8-24]"
  IC50 (µM): 8.7
- MOLECULE: "CCCCCCCCn1cc(CC(N)=O)c2cc(-c3cccc(C)c3)ccc21 [Cysmethynil, reference compound]"
  IC50 (µM): 27.4
- MOLECULE: "CCCCCCCCn1cc(CN(CC)CC)c2cc(-c3ccc(S(C)(=O)=O)cc3)ccc21 [Compound 8-10]"
  IC50 (µM): 5.56

###

ASSAY_NAME: Pharmacokinetic study, IP
Assay type: in vivo, mice
MEASUREMENT_SETUP: female, Balb/c, mouse, plasma, ip, 10 mg/kg or 25 mg/kg IP, estimated; read-out: half life
PROPERTY_LABEL: half-life

- TEST_SMILES: "CCCCCCCCn1cc(CN(CC)CC)c2cc(-c3cnc(N)nc3)ccc21"
  PROPERTY_LABEL: "half-life"
  RESULT: "< 3 h"
